These data points were gathered from ChEMBL document CHEMBL4414574.

Assay: Half life in rat plasma at 50 mg/kg, po
Format: ADME, organism-based

{"columns": ["smiles.entry", "half-life"],
 "data": [
  ["Cc1ccc(-n2nc(C(=O)N3C[C@@H](C)N[C@@H](C)C3)nc2-c2ccc3c(c2)N(C2CCCC2)[C@H](C)C(=O)N3C)cc1", "378 min"]
]}

---

Assay: Cmax in ICR mouse brain at 50 mg/kg, po administered via gavage measured after 0.25 to 24 hrs by UPLC/MS analysis
Assay type: ADME, organism-based
Set-up: dose 50 mg/kg, route oral

{"columns": ["smiles.entry", "result.unit", "Cmax"],
 "data": [
  ["Cc1ccc(-n2nc(C(=O)N3C[C@@H](C)N[C@@H](C)C3)nc2-c2ccc3c(c2)N(C2CCCC2)[C@H](C)C(=O)N3C)cc1", "ng/mL", 377]
]}

---

Target: Cytochrome P450 3A4 (Homo sapiens, UniProt P08684)
Sequence (P08684 whole entry): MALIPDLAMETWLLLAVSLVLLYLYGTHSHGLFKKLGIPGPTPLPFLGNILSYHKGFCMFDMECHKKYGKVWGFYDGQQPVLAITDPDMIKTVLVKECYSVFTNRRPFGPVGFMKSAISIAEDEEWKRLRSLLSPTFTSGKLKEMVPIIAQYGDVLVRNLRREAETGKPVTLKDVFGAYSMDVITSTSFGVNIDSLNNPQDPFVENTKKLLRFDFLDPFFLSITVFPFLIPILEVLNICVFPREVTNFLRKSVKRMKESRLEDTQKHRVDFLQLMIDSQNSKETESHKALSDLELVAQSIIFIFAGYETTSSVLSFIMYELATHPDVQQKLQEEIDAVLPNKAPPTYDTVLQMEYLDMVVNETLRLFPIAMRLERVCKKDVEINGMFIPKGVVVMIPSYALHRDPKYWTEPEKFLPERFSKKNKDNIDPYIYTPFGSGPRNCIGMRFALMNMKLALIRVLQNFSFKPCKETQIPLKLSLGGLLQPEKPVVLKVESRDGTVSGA
Test: Time-dependent inhibition of CYP3A4 in human liver microsomes at 10 uM using midazolam or testosterone as substrate preincubated up to 30 mins followed by NADPH generating system addition and measured after 10 mins
Format: ADME

{"columns": ["molecule", "subject.of.test", "TDI"],
 "data": [
  ["Cc1ccc(-n2nc(C(=O)N3C[C@@H](C)N[C@@H](C)C3)nc2-c2ccc3c(c2)N(C2CCCC2)[C@H](C)C(=O)N3C)cc1", "Cytochrome P450 3A4 (Homo sapiens, UniProt P08684)", "8 ×10⁻⁴ /min"],
  ["Cc1ccc(-n2nc(C(=O)N3CCN(C)CC3)nc2-c2ccc3c(c2)N(C2CC2)C(C)C(=O)N3C)cc1 (stereo unspecified)", "Cytochrome P450 3A4 (Homo sapiens, UniProt P08684)", "19 ×10⁻⁴ /min"],
  ["Cc1ccc(-n2c(C)nnc2-c2ccc3c(c2)N(C2CCCC2)[C@H](C)C(=O)N3C)cc1", "Cytochrome P450 3A4 (Homo sapiens, UniProt P08684)", "Not Active"],
  ["Cc1ccc(-n2cnnc2-c2ccc3c(c2)N(C2CC2)C(C)C(=O)N3C)cc1 (stereo unspecified)", "Cytochrome P450 3A4 (Homo sapiens, UniProt P08684)", "Not Active"],
  ["Cc1ccc(-n2c(C)nnc2-c2ccc3c(c2)N(C2CC2)C(C)C(=O)N3C)cc1 (stereo unspecified)", "Cytochrome P450 3A4 (Homo sapiens, UniProt P08684)", "Not Active"],
  ["Cc1ccc(-n2nc(C(=O)N3CCN(C)CC3)nc2-c2ccc3c(c2)N(C2CCCC2)[C@H](C)C(=O)N3C)cc1", "Cytochrome P450 3A4 (Homo sapiens, UniProt P08684)", "55 ×10⁻⁴ /min"]
]}

---

Assay: Intrinsic clearance in human liver microsomes at 1 uM preincubated for 5 mins followed by NADPH addition and measured after 5 to 30 mins by LC/MS/MS analysis
Type: ADME, Microsome
Conditions: read-out: CLH

{"columns": ["compound", "microsomal CLint at 1 µM"],
 "data": [
  ["Cc1ccc(-n2nc(C(=O)N3CCN(C)CC3)nc2-c2ccc3c(c2)N(C2CCCC2)[C@H](C)C(=O)N3C)cc1", "61 µL/min/mg"],
  ["Cc1ccc(-n2nc(C(=O)N3CCN(C)CC3)nc2-c2ccc3c(c2)N(C2CC2)C(C)C(=O)N3C)cc1 (stereo not drawn)", "22 µL/min/mg"],
  ["Cc1ccc(-n2c(C)nnc2-c2ccc3c(c2)N(C2CC2)C(C)C(=O)N3C)cc1 (stereo not drawn)", "44 µL/min/mg"]
]}

---

Molecular target: CYP2D6 (Homo sapiens, UniProt P10635)
Sequence (P10635 whole entry): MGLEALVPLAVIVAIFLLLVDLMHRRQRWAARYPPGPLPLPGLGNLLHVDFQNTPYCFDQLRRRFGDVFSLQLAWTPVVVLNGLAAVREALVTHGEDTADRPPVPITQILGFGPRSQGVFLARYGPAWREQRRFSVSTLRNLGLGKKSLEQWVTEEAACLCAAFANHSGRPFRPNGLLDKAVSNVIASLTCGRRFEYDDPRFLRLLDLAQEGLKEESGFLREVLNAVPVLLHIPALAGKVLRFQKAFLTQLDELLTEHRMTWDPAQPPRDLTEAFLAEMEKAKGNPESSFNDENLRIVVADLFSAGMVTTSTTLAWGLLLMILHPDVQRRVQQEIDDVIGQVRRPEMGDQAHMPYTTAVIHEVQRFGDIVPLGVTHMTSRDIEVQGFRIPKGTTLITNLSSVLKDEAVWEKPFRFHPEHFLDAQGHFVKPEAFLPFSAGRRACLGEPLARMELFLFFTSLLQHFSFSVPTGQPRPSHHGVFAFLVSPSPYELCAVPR
Assay: Reversible inhibition of CYP2D6 in human liver microsomes at 10 uM using dextromethorphan as substrate preincubated for 5 mins followed by NADPH generating system addition and measured after 20 mins relative to control
Type: ADME
Settings: probe dextromethorphan

{"columns": ["smiles.entry", "result.unit", "inhibition at 20 min, 10 µM"],
 "data": [
  ["Cc1ccc(-n2nc(C(=O)N3CCN(C)CC3)nc2-c2ccc3c(c2)N(C2CCCC2)[C@H](C)C(=O)N3C)cc1", "%", 3]
]}

---

Experiment: AUC (0 to infinity) in dog plasma at 1 mg/kg, iv
Assay type: ADME, organism-based, Canis lupus familiaris
Set-up: dose 1 mg/kg, time infinity, route intravenous

{"columns": ["smiles.entry", "AUC(0-inf)"],
 "data": [
  ["Cc1ccc(-n2nc(C(=O)N3C[C@@H](C)N[C@@H](C)C3)nc2-c2ccc3c(c2)N(C2CCCC2)[C@H](C)C(=O)N3C)cc1", "856 ng·h/mL"]
]}

---

Experiment: AUC (0 to t) in dog plasma at 1 mg/kg, iv
Format: ADME, organism-based, Canis lupus familiaris

{"columns": ["smiles.entry", "AUC(0-t), ng·h/mL"],
 "data": [
  ["Cc1ccc(-n2nc(C(=O)N3C[C@@H](C)N[C@@H](C)C3)nc2-c2ccc3c(c2)N(C2CCCC2)[C@H](C)C(=O)N3C)cc1", 726]
]}

---

Target: Bromodomain-containing protein 4 (Homo sapiens, UniProt O60885)
Test: Displacement of 5-FITC labelled (+)-JQ1 from His6-tagged human BRD4 bromodomain 1 expressed in Escherichia coli BL21(DE3) )-codon plus-RIL cells incubated for 4 hrs in dark condition by fluorescence anisotropy binding assay
pIC50: −log10 of the molar value.
I would appreciate it if you labelled entries TRUE when pIC50 is 8 or higher, otherwise FALSE.

{"columns": ["compound", "group.label"],
 "data": [
  ["CCN1CCN(C(=O)c2nc(-c3ccc4c(c3)N(C3CCCC3)[C@H](C)C(=O)N4C)n(-c3ccc(C)cc3)n2)CC1", "TRUE"],
  ["Cc1onc(-c2ccccc2)c1-c1ccc2c(c1)N(C1CCCC1)[C@H](C)C(=O)N2C", "FALSE"],
  ["Cc1ccc(-n2nc(C(=O)N3CCC4(CCCC4)CC3)nc2-c2ccc3c(c2)N(C2CCCC2)[C@H](C)C(=O)N3C)cc1", "FALSE"],
  ["Cc1ccc(-n2nc(C(=O)N3CCN(C)CC3)nc2-c2ccc3c(c2)N(C2CCCC2)[C@H](C)C(=O)N3C)cc1", "TRUE"],
  ["Cc1ccc(-n2nc(C(=O)N3C[C@@H](C)N[C@@H](C)C3)nc2-c2ccc3c(c2)N(C2CCCC2)[C@H](C)C(=O)N3C)cc1", "TRUE"],
  ["Cc1ccc(-n2nc(C(=O)N3CC4CCC(C3)N4C)nc2-c2ccc3c(c2)N(C2CCCC2)[C@H](C)C(=O)N3C)cc1", "TRUE"],
  ["Cc1ccc(-n2nc(C(=O)N3CCN(C(C)C)CC3)nc2-c2ccc3c(c2)N(C2CCCC2)[C@H](C)C(=O)N3C)cc1", "TRUE"],
  ["Cc1ccc(-n2c(C)nnc2-c2ccc3c(c2)N(C2CC2)C(C)C(=O)N3C)cc1 (stereo not given)", "TRUE"],
  ["Cc1ccc(-n2nc(C(=O)N3CCN(C)CC3)nc2-c2ccc3c(c2)N(C2CCCC2)[C@H](C)C(=O)N3C)cc1F", "TRUE"],
  ["Cc1ccc(-n2nc(C(=O)N3CCN(C)CC3)nc2-c2ccc3c(c2)N(C2CCCC2)[C@H](C)C(=O)N3C)c(C)c1", "TRUE"],
  ["Cc1ccc(N2C(=O)CSC2c2ccc3c(c2)N(C2CC2)C(C)C(=O)N3C)cc1 (stereo not given)", "FALSE"],
  ["Cc1ccc(-n2c(C)nnc2-c2ccc3c(c2)N(C2CCCC2)[C@H](C)C(=O)N3C)cc1", "TRUE"]
]}

---

Assay: AUC (0 to t) in ICR mouse brain at 50 mg/kg, po administered via gavage measured after 0.25 to 24 hrs by UPLC/MS analysis
Type: ADME, organism-based
Set-up: time lower 0.25 hr, dose 50 mg/kg, time upper 24 hr, route oral

{"columns": ["smiles.entry", "AUC(0-t), ng·h/mL"],
 "data": [
  ["Cc1ccc(-n2nc(C(=O)N3C[C@@H](C)N[C@@H](C)C3)nc2-c2ccc3c(c2)N(C2CCCC2)[C@H](C)C(=O)N3C)cc1", 2320]
]}

---

Target: CYP3A4 (Homo sapiens)
Sequence (P08684 whole entry): as the sequence (P08684 whole entry) above
Assay: Reversible inhibition of CYP3A4 in human liver microsomes at 10 uM using midazolam or testosterone as substrate preincubated for 5 mins followed by NADPH addition and measured after 20 mins relative to control
Type: ADME
Details: probe midazolam or testosterone
measured.attribute: inhibition at 20 min, 10 µM (%)

{"columns": ["compound", "result.unit", "reported.result"],
 "data": [
  ["Cc1ccc(-n2nc(C(=O)N3CCN(C)CC3)nc2-c2ccc3c(c2)N(C2CC2)C(C)C(=O)N3C)cc1 (centres undefined)", "%", 12],
  ["Cc1ccc(-n2c(C)nnc2-c2ccc3c(c2)N(C2CC2)C(C)C(=O)N3C)cc1 (centres undefined)", "%", 3],
  ["Cc1ccc(-n2nc(C(=O)N3CCN(C)CC3)nc2-c2ccc3c(c2)N(C2CCCC2)[C@H](C)C(=O)N3C)cc1", "%", 31]
]}
